# test: Fluorescence properties of the CypH dyes at pH 5.0 and pH 7.5 (Table 2)
# Assay type: physicochemical
# test parameters: pH 5.0
quantity kind: FL Max (nm) pH 5.0

- CC(C)CN1/C(=C/C=C2\CCCC(/C=C/C3=[N+](CC(C)C)c4ccccc4C3(C)C)=C2Oc2ccc(N(C)C)cc2)C(C)(C)c2ccccc21.[I-]: 794
- CN(C)c1ccc(OC2=C(/C=C/C3=[N+](C)c4ccccc4C3(C)C)CC/C2=C\C=C2\N(C)c3ccccc3C2(C)C)cc1.[Cl-]: 801
- CC(C)CN1/C(=C/C=C2\CCCC(/C=C/C3=[N+](CC(C)C)c4ccccc4C3(C)C)=C2Oc2ccc(N(C)C(C)C)cc2)C(C)(C)c2ccccc21.[I-]: 796
- CC(C)N(C)c1ccc(OC2=C(/C=C/C3=[N+](C(C)C)c4ccccc4C3(C)C)CCC/C2=C\C=C2\N(C(C)C)c3ccccc3C2(C)C)cc1.[I-]: 790
- CN(C)c1ccc(OC2=C(/C=C/C3=[N+](C)c4ccccc4C3(C)C)CCC/C2=C\C=C2\N(C)c3ccccc3C2(C)C)cc1.[Cl-] [CypH-1, reference compound]: 787
- CCN(CC)c1ccc(OC2=C(/C=C/C3=[N+](C)c4ccccc4C3(C)C)CCC/C2=C\C=C2\N(C)c3ccccc3C2(C)C)cc1.[Cl-]: 786
- CCN(C)c1ccc(OC2=C(/C=C/C3=[N+](C(C)C)c4ccccc4C3(C)C)CCC/C2=C\C=C2\N(C(C)C)c3ccccc3C2(C)C)cc1: 791
